- Species on record: Rattus norvegicus
- RUN DESCRIPTION: Activity at rat GABAA alpha-1-beta-2-gamma-2L receptor expressed in Xenopus laevis expressed in assessed as ratio of current in treated to non-treated oocyte at 1 uM by electrophysiology
REPORTED PROPERTY: Ratio
Give bare numbers.

C[C@@]12CC[C@H](O)C[C@@H]1CC[C@@H]1[C@@H]2CC[C@@]2(C)C(=O)CC[C@@H]12 :: 2.34

Would you mind giving Ratio for every compound in the list below?
1. C[C@]12CC[C@@H](O)C[C@@H]1CC[C@@H]1[C@@H]2CC[C@@]2(C)[C@H]1CC[C@@]21CO1
2. CC(=O)[C@@H]1CC[C@H]2[C@@H]3CC[C@@H]4C[C@@H](O)CC[C@@]4(C)[C@H]3CC[C@@]12C
3. CC(=O)[C@H]1CC[C@H]2[C@@H]3CC[C@@H]4C[C@H](O)CC[C@]4(C)[C@H]3CC[C@]12C
4. CC(=O)[C@H]1CC[C@H]2[C@@H]3CC[C@H]4C[C@H](O)CC[C@]4(C)[C@H]3CC[C@]12C

Output:
[21.9, 0.92, 2.82, 3.89]

Would you mind giving Ratio for every compound in the list below?
1. C[C@]12CC[C@@H](O)C[C@H]1CC[C@@H]1[C@@H]2CC[C@]2(C)C(=O)CC[C@@H]12
2. C[C@@]12CC[C@H](O)C[C@H]1CC[C@@H]1[C@@H]2CC[C@]2(C)[C@H]1CC[C@]21CO1
3. C[C@]12CC[C@@H](O)C[C@H]1CC[C@@H]1[C@@H]2CC[C@@]2(C)[C@H]1CC[C@@]21CO1

Output:
1. 0.87
2. 15.9
3. 5.17

---

- Test system: Xenopus laevis
- RUN DESCRIPTION: Anesthetic effect in Xenopus laevis assessed as loss of righting response
- Type: functional, organism-based
Would you mind telling me the reported pEC50 of each entry?
One number for each entry, as −log10 of the molar value.

Would you mind giving pEC50 for every molecule in the list below?
1. CC(=O)[C@@H]1CC[C@H]2[C@@H]3CC[C@H]4C[C@@H](O)CC[C@@]4(C)[C@H]3CC[C@@]12C
2. C[C@@]12CC[C@H](O)C[C@@H]1CC[C@@H]1[C@@H]2CC[C@@]2(C)C(=O)CC[C@@H]12
3. C[C@@]12CC[C@H](O)C[C@H]1CC[C@@H]1[C@@H]2CC[C@]2(C)[C@H]1CC[C@]21CO1
4. CC(=O)[C@@H]1CC[C@H]2[C@@H]3CC[C@@H]4C[C@@H](O)CC[C@@]4(C)[C@H]3CC[C@@]12C
5. C[C@]12CC[C@@H](O)C[C@@H]1CC[C@@H]1[C@@H]2CC[C@]2(C)C(=O)CC[C@@H]12 [ANDROSTERONE]

Output:
7.15
5.71
5.97
6.01
5.47

Would you mind giving pEC50 for every molecule in the list below?
1. C[C@@]12CC[C@H](O)C[C@@H]1CC[C@@H]1[C@@H]2CC[C@]2(C)[C@H]1CC[C@]21CO1
2. C[C@]12CC[C@@H](O)C[C@H]1CC[C@@H]1[C@@H]2CC[C@@]2(C)[C@H]1CC[C@@]21CO1

Output:
[5.76, 6.00]

---

- Organism: Rattus norvegicus
- RUN DESCRIPTION: Activity at rat GABAA alpha-1-beta-2-gamma-2L receptor expressed in Xenopus laevis expressed in assessed as ratio of current in treated to non-treated oocyte at 10 uM by electrophysiology
REPORTED PROPERTY: Ratio
One number for each entry.

CC(=O)[C@H]1CC[C@H]2[C@@H]3CC[C@@H]4C[C@H](O)CC[C@]4(C)[C@H]3CC[C@]12C :: 9.77
C[C@]12CC[C@@H](O)C[C@H]1CC[C@@H]1[C@@H]2CC[C@@]2(C)[C@H]1CC[C@@]21CO1 :: 25.4
C[C@@]12CC[C@H](O)C[C@@H]1CC[C@@H]1[C@@H]2CC[C@@]2(C)C(=O)CC[C@@H]12 :: 14.1

Would you mind giving Ratio for every compound in the list below?
1. C[C@]12CC[C@@H](O)C[C@@H]1CC[C@@H]1[C@@H]2CC[C@@]2(C)[C@H]1CC[C@@]21CO1
2. C[C@@]12CC[C@H](O)C[C@H]1CC[C@@H]1[C@@H]2CC[C@]2(C)[C@H]1CC[C@]21CO1
3. CC(=O)[C@@H]1CC[C@H]2[C@@H]3CC[C@@H]4C[C@@H](O)CC[C@@]4(C)[C@H]3CC[C@@]12C
4. C[C@@]12CC[C@H](O)C[C@H]1CC[C@@H]1[C@@H]2CC[C@@]2(C)C(=O)CC[C@@H]12

Output:
33.7
26.3
1.17
18.9

Would you mind giving Ratio for every compound in the list below?
1. CC(=O)[C@H]1CC[C@H]2[C@@H]3CC[C@H]4C[C@H](O)CC[C@]4(C)[C@H]3CC[C@]12C
2. C[C@@]12CC[C@H](O)C[C@@H]1CC[C@@H]1[C@@H]2CC[C@]2(C)[C@H]1CC[C@]21CO1

Output:
[9.65, 20.8]

---

- Organism: Rattus norvegicus
- RUN DESCRIPTION: Activity at rat GABAA alpha-1-beta-2-gamma-2L receptor expressed in Xenopus laevis assessed as ratio of current in treated to non-treated oocyte at 0.1 uM by electrophysiology
REPORTED PROPERTY: Ratio
Answers are plain numbers.

CC(=O)[C@H]1CC[C@H]2[C@@H]3CC[C@H]4C[C@H](O)CC[C@]4(C)[C@H]3CC[C@]12C :: 1.26
C[C@@]12CC[C@H](O)C[C@@H]1CC[C@@H]1[C@@H]2CC[C@]2(C)[C@H]1CC[C@]21CO1 :: 1.86
C[C@@]12CC[C@H](O)C[C@H]1CC[C@@H]1[C@@H]2CC[C@]2(C)[C@H]1CC[C@]21CO1 :: 2.62
C[C@]12CC[C@@H](O)C[C@H]1CC[C@@H]1[C@@H]2CC[C@@]2(C)[C@H]1CC[C@@]21CO1 :: 1.28

Would you mind giving Ratio for every molecule in the list below?
1. CC(=O)[C@@H]1CC[C@H]2[C@@H]3CC[C@@H]4C[C@@H](O)CC[C@@]4(C)[C@H]3CC[C@@]12C
2. CC(=O)[C@H]1CC[C@H]2[C@@H]3CC[C@@H]4C[C@H](O)CC[C@]4(C)[C@H]3CC[C@]12C

Output:
0.95
1.2

In plain terms, C[C@@]12CC[C@H](O)C[C@@H]1CC[C@@H]1[C@@H]2CC[C@@]2(C)C(=O)CC[C@@H]12 has a documented Ratio of 1.4

---

- RUN DESCRIPTION: Displacement of […] from GABAA receptor in rat brain
- Assay type: tissue-based
Would you mind telling me the reported pIC50 of each entry?
Answers are plain numbers, as −log10 of the molar value.

These solved cases illustrate the format of a correct answer.
C[C@]12CC[C@@H](O)C[C@H]1CC[C@@H]1[C@@H]2CC[C@@]2(C)[C@H]1CC[C@@]21CO1 :: 6.66
C[C@@]12CC[C@H](O)C[C@H]1CC[C@@H]1[C@@H]2CC[C@@]2(C)C(=O)CC[C@@H]12 :: 6.51
C[C@]12CC[C@@H](O)C[C@@H]1CC[C@@H]1[C@@H]2CC[C@@]2(C)[C@H]1CC[C@@]21CO1 :: 6.96
C[C@]12CC[C@@H](O)C[C@@H]1CC[C@@H]1[C@@H]2CC[C@]2(C)C(=O)CC[C@@H]12 :: 6.39
CC(=O)[C@H]1CC[C@H]2[C@@H]3CC[C@H]4C[C@H](O)CC[C@]4(C)[C@H]3CC[C@]12C :: 7.13

Would you mind giving pIC50 for every compound in the list below?
1. C[C@@]12CC[C@H](O)C[C@@H]1CC[C@@H]1[C@@H]2CC[C@]2(C)[C@H]1CC[C@]21CO1
2. CC(=O)[C@@H]1CC[C@H]2[C@@H]3CC[C@@H]4C[C@@H](O)CC[C@@]4(C)[C@H]3CC[C@@]12C

Output:
1: 6.41; 2: 5.72

Would you mind giving pIC50 for every compound in the list below?
1. C[C@@]12CC[C@H](O)C[C@@H]1CC[C@@H]1[C@@H]2CC[C@@]2(C)C(=O)CC[C@@H]12
2. C[C@@]12CC[C@H](O)C[C@H]1CC[C@@H]1[C@@H]2CC[C@]2(C)[C@H]1CC[C@]21CO1

Output:
6.42
6.33

---

Would you mind telling me the reported Ratio of each entry?
- Species on record: Rattus norvegicus
- RUN DESCRIPTION: Activity at rat GABAA alpha-1-beta-2-gamma-2L receptor expressed in Xenopus laevis expressed in assessed as ratio of current in treated to non-treated oocyte at 10 uM by electrophysiology
Give bare numbers.

These solved cases illustrate the format of a correct answer.
CC(=O)[C@@H]1CC[C@H]2[C@@H]3CC[C@H]4C[C@@H](O)CC[C@@]4(C)[C@H]3CC[C@@]12C :: 7.92
C[C@]12CC[C@@H](O)C[C@@H]1CC[C@@H]1[C@@H]2CC[C@]2(C)C(=O)CC[C@@H]12 [ANDROSTERONE] :: 5.44

Pending molecule:
In plain terms, C[C@]12CC[C@@H](O)C[C@H]1CC[C@@H]1[C@@H]2CC[C@]2(C)C(=O)CC[C@@H]12 [ETIOCHOLANOLONE] has a documented Ratio of 1.39

src = ChEMBL document CHEMBL1157210
